Attribution: a melting point compilation (Tetko et al.; mined from patent text by program, amines drawn as free bases though some values may be those of a salt)

The reader will find reported melting point values listed item by item below.

>  <COMPOUND>
O=c1[nH]c2ccccc2n1CCCN1CCC(O)(c2ccc(Cl)c(C(F)(F)F)c2)CC1

>  <melting point>
189 °C

$$$$
>  <COMPOUND>
O=C(O)C=Cc1c(-c2ccccc2)nn2ccccc12

>  <melting point>
153 to 155 °C

$$$$
>  <COMPOUND>
CCOC(=O)Cn1cc(-c2ccc(F)cc2)c(-c2ccc(S(C)(=O)=O)cc2)n1

>  <melting point>
116 to 118 °C

$$$$
>  <COMPOUND>
CCCCc1nn(-c2ccccc2C(F)(F)F)c(=O)n1Cc1ccc(-c2ccccc2S(=O)(=O)NC(=O)C(c2ccccc2)c2ccccc2)cc1

>  <melting point>
144 to 146 °C

$$$$
>  <COMPOUND>
COC(=O)c1c(SCc2ccc(OC)cc2)ncn1Cc1cc2c(cc1Cl)OCO2

>  <melting point>
123 °C

$$$$
>  <COMPOUND>
CCOC(=O)c1c(C)cc2cnc(-c3ccccc3)nc2c1C

>  <melting point>
85 to 86 °C

$$$$
>  <COMPOUND>
CCOP(=O)(OCC)c1c(C)c2c(c(C)c1-c1c(OCc3ccccc3)ccc3ccccc13)CN(S(=O)(=O)c1ccc(C)cc1)C2

>  <melting point>
69.8 to 71.7 °C

$$$$
>  <COMPOUND>
COc1ccc(Oc2cccc(-c3nnc(Nc4ccc(Cl)c(Cl)c4)s3)c2)cc1

>  <melting point>
198 to 199 °C

$$$$
>  <COMPOUND>
C/C(=C\c1ccc(C(=O)O)cc1)c1ccc2c(c1)N(C)CCN2C

>  <melting point>
203 to 205 °C

$$$$
>  <COMPOUND>
CC(NC(Nc1cc(F)cc(C(F)(F)F)c1)=C(C#N)S(C)(=O)=O)C(C)(C)C (stereo not drawn)

>  <melting point>
183 to 185 °C

$$$$
>  <COMPOUND>
COc1ccc2cc([C@H](C)C(=O)OCC3(CO[N+](=O)[O-])COCOC3)ccc2c1

>  <melting point>
98 °C

$$$$
>  <COMPOUND>
COc1cc2c(cc1Cl)CCN(C)CC2c1ccc(Br)cc1 (stereo not drawn)

>  <melting point>
116 to 118 °C

$$$$
>  <COMPOUND>
O=S(=O)(Nc1cccc2cc(-c3ccccn3)[nH]c12)c1cccs1

>  <melting point>
161 to 162 °C

$$$$
>  <COMPOUND>
CCCCCCCCCCCCCCOc1ccc(CC(=O)NCc2ccccn2)cc1

>  <melting point>
86 to 87 °C

$$$$
>  <COMPOUND>
COc1ccc(-c2cn([C@H]3CN4CCC3CC4)nn2)cc1

>  <melting point>
122 °C

$$$$
>  <COMPOUND>
OCc1ccc(-c2ccc(OCc3ccccc3)cc2)cc1

>  <melting point>
194 to 195 °C

$$$$
>  <COMPOUND>
CC(=O)OCC1OC(n2c(Br)nc3cc(Cl)c(Cl)cc32)C(O)C1O (stereo not drawn)

>  <melting point>
85 to 95 °C

$$$$
>  <COMPOUND>
Cc1c(CO)c2ccc(OCCCN3CCN(Cc4ccc(Cl)cc4)CC3)cc2oc1=O

>  <melting point>
135 °C

$$$$
>  <COMPOUND>
O=[N+]([O-])c1ccc(OCc2ccccc2)c(C(F)(F)F)c1

>  <melting point>
112 to 114 °C

$$$$
>  <COMPOUND>
CCOC(=O)c1cn(Cc2cnsn2)c2c(F)c(F)c(F)cc2c1=O

>  <melting point>
200 to 203 °C

$$$$
>  <COMPOUND>
C=Cc1ccccc1OC(C)C(=O)N1CCCC1 (stereo not drawn)

>  <melting point>
85 to 86 °C

$$$$
>  <COMPOUND>
COc1ccc2c(CN3CCC[C@H]3CO)cc3cc4c(cc3c2c1)OCO4

>  <melting point>
138 to 139 °C

$$$$
>  <COMPOUND>
Clc1ccc(CNc2nc(-c3nccc4ccccc34)nc3ccccc23)cc1

>  <melting point>
221 to 224 °C

$$$$
>  <COMPOUND>
C#CCOc1cc(-n2c(C#N)c(C#N)n(CCC)c2=O)c(F)cc1Cl

>  <melting point>
164 to 166 °C

$$$$
>  <COMPOUND>
CCCN(CCC)Cc1nc(-c2ncn3c2[C@@H]2CCN2C(=O)c2c(Cl)cccc2-3)no1

>  <melting point>
147 to 153 °C

$$$$
>  <COMPOUND>
Cc1noc(C=Cc2ccccc2O)n1

>  <melting point>
184 to 186 °C

$$$$
>  <COMPOUND>
Cc1cc(Cl)ccc1NC(=O)NCc1ccc2c(c1)CN(C1CCC(=O)NC1=O)C2=O (stereo not drawn)

>  <melting point>
256 to 258 °C

$$$$
>  <COMPOUND>
CC(=O)OC[C@H]1O[C@@H](Cn2ccc(=S)[nH]c2=O)[C@@H](OC(C)=O)[C@@H]1OC(C)=O

>  <melting point>
100 to 105 °C

$$$$
>  <COMPOUND>
CN(C)Nc1cc(Cl)c(Cl)cc1[N+](=O)[O-]

>  <melting point>
138 to 143 °C

$$$$
>  <COMPOUND>
O=C(N[C@H]1CC[C@H](CCN2CCN(c3nccc4c3OCC4)CC2)CC1)c1ccc(-c2ccccc2)cc1

>  <melting point>
220 °C

$$$$
>  <COMPOUND>
Cn1ncnc1COc1nn2c(-c3ccccc3Cl)nncc2c1-c1ccccc1F

>  <melting point>
155 to 157 °C

$$$$
>  <COMPOUND>
CCn1c2ccccc2c2cc(C=C(C#N)c3ccc(C(F)(F)F)cc3)ccc21

>  <melting point>
164 to 165 °C

$$$$
>  <COMPOUND>
Cc1nc(O)c([N+](=O)[O-])c(N2CCc3cncnc3CC2)n1

>  <melting point>
> 200 °C

$$$$
>  <COMPOUND>
Nc1ccc(CCc2nc3ccccc3s2)cc1

>  <melting point>
79 to 81 °C

$$$$
>  <COMPOUND>
CCCCN(C(=O)C(C)C)c1ccc(-c2ccccc2)o1

>  <melting point>
87 °C

$$$$
>  <COMPOUND>
C[Si](C)(C)C#Cc1cnn2c(C(F)(F)F)cc(-c3ccc(C(F)(F)F)cc3)nc12

>  <melting point>
136 °C

$$$$
>  <COMPOUND>
Cc1nc(NC(=O)Nc2ccccc2)n(C)c(=O)c1CCN1CCC(Cc2nc3ccccc3n2Cc2ccc(F)cc2)CC1

>  <melting point>
157 °C

$$$$
>  <COMPOUND>
O=C(c1cccnc1)N1CCN=C1Nc1c(Cl)cccc1Cl

>  <melting point>
173 to 174 °C

$$$$
